Known pIC50 of a selection of compounds
Molecular target: full-length human PIKFYVE (Homo sapiens (Human), UniProt Q9Y2I7, L932S/Q1183K/Q995L/S1033A/S696N/T998S)
Sequence (Q9Y2I7 whole entry S696N/L932S/Q995L/T998S/S1033A/Q1183K): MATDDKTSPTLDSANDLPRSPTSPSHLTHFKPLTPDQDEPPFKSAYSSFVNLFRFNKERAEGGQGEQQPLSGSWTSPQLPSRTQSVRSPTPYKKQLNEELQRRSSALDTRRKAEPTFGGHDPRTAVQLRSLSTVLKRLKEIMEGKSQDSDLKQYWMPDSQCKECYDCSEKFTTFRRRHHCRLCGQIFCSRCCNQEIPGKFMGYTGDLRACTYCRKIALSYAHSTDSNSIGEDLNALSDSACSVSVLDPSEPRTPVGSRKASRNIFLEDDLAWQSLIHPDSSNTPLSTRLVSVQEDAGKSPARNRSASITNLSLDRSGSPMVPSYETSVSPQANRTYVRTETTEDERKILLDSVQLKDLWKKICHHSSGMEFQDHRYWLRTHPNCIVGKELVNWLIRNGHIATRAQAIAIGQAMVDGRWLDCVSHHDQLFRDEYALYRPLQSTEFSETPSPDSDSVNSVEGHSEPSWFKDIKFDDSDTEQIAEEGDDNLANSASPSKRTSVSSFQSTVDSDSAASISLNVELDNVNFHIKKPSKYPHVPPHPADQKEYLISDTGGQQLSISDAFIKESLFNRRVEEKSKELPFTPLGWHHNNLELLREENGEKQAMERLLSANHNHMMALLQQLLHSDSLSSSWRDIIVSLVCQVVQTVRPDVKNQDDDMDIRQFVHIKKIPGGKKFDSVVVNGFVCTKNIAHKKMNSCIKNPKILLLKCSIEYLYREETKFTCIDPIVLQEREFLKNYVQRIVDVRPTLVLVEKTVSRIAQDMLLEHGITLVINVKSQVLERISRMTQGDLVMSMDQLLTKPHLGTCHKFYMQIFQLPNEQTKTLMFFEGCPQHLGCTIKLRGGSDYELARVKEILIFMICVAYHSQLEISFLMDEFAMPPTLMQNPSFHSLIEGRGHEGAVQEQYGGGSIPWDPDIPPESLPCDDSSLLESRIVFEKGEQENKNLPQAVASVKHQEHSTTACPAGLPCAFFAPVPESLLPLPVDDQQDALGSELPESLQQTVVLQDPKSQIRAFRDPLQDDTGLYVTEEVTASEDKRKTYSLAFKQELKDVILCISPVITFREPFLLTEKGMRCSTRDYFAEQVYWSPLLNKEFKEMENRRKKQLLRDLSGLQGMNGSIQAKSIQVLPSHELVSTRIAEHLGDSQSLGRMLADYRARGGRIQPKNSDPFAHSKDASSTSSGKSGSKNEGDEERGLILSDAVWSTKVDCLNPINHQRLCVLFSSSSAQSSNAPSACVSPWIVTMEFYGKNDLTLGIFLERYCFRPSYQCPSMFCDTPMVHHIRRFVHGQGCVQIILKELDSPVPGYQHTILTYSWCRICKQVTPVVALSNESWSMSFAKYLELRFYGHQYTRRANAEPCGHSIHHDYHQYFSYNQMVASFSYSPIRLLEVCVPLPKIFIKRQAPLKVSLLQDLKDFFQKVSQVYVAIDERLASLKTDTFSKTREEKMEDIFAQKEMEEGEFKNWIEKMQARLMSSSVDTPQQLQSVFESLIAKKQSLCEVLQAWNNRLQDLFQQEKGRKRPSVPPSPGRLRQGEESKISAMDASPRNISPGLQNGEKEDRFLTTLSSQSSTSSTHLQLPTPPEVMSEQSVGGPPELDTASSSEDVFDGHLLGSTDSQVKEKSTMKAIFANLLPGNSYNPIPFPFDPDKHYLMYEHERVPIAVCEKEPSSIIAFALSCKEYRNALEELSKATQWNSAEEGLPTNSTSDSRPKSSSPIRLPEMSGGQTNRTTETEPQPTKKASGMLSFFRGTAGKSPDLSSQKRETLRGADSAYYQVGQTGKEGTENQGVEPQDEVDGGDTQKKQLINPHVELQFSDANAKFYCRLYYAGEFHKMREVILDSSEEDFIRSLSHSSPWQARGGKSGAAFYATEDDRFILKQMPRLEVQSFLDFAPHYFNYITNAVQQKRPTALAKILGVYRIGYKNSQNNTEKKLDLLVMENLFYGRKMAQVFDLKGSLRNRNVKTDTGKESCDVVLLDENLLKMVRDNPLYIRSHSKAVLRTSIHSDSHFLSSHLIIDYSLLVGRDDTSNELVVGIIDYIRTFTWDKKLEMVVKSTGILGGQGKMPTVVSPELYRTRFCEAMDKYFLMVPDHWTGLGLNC
Test: PIKfyve biochemical assay (ADP-Glo Kinase assay, Carna Biosciences)
Conditions: ADP-Glo, GST-PIKFYVE, 10 μM to 3 nM; read-out: hPIKfyve IC50
pIC50: −log10 of the molar value.

Guide cases for pIC50, answers given:
Ask: Hello, please tell me recorded pIC50 for this one: Cn1c(-c2ccncc2)nc2c(N3CCOCC3)nc(-c3noc(C4CCCNC4)n3)nc21 (centres unmarked)
Reply: 6.00 to 7.00

Ask: Hello, please tell me recorded pIC50 for this one: "Cn1c(C2=CCOCC2)nc2c(N3CCOCC3)nc(-n3ccc(-c4ccccc4)n3)nc21"
Reply: 7.00 to 8.00

Ask: Hello, please tell me recorded pIC50 for this one: "Cn1c(-c2ccncc2)nc2c(N3CCOCC3)nc(-c3cccc4c3OCCO4)nc21"
Reply: 6.00 to 7.00

Further cases:
Ask: Hello, please tell me recorded pIC50 for this one: "Cn1c(C2CCNCC2)nc2c(N3CCOCC3)nc(-n3ccc(-c4ccccc4)n3)nc21"
Reply: 6.00 to 7.00

Ask: Hello, please tell me recorded pIC50 for this one: "Cn1c(-c2ccncc2)nc2c(N3CCOCC3)nc(-n3ccc(C4CC5(C4)CN(C(=O)OC(C)(C)C)C5)n3)nc21"
Reply: 6.00 to 7.00
